- Measured Target: UniProtKB Q9Y6R4
- Sequence (Q9Y6R4 whole entry): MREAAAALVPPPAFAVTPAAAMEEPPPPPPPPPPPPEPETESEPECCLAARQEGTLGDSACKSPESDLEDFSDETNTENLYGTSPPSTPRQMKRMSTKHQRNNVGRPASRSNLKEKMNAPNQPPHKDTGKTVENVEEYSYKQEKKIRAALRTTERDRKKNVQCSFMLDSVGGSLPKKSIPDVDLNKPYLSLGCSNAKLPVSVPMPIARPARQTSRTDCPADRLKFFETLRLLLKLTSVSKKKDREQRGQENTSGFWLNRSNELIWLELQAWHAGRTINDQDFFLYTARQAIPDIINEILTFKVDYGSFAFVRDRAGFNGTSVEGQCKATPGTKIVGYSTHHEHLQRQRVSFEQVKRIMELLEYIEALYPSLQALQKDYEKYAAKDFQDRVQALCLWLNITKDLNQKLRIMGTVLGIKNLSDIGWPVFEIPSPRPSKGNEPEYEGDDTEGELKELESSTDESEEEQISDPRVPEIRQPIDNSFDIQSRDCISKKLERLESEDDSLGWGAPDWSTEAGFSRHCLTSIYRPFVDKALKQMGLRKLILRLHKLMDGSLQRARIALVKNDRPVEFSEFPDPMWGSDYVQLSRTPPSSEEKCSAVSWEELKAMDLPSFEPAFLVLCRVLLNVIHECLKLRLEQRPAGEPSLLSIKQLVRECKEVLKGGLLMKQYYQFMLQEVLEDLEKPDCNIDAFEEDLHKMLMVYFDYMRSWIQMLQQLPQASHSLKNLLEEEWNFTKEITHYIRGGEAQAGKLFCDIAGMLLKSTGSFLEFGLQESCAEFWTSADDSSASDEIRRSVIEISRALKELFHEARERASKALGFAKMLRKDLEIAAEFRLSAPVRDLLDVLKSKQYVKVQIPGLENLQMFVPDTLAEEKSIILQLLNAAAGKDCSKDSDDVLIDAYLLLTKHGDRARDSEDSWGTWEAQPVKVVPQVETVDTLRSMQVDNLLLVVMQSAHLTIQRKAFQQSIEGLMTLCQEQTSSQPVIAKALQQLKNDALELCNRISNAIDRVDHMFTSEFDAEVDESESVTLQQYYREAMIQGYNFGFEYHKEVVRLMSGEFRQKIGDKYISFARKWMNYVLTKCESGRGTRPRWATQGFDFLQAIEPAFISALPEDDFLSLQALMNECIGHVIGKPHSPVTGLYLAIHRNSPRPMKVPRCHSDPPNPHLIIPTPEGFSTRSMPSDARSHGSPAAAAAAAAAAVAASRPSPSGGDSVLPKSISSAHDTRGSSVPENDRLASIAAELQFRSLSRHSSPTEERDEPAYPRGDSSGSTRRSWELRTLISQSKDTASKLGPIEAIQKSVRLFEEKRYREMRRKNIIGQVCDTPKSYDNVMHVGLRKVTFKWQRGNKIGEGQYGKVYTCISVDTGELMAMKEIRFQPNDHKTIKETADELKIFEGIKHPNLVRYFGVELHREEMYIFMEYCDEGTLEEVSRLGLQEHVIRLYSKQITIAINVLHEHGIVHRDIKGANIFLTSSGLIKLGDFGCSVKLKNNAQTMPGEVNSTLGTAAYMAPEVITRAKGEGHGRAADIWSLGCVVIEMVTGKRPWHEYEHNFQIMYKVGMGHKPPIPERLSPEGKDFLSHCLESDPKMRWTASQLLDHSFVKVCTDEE
- Procedure Summary: KiNativ assay
- Format: binding
- Condition Label: H929 live cell, read-out: inhibition (10 μM)
Please go through the items and note down their inhibition at 10 µM.
Answers are plain numbers, in %.

Consider the worked cases shown below.
| Compound Structure | Value Unit | Observed Measurement |
| --- | --- | --- |
| COc1cc(NS(=O)(=O)C2CC2)ccc1-c1cnc(N)c(-c2ccc3c(c2)CCNC3=O)c1 | % | 9.5 |
| Nc1ncc(-c2ccc(NS(=O)(=O)C3CC3)cc2OC2CCCCC2)cc1-c1ccc2c(c1)CCNC2=O | % | 10.3 |
| Nc1ncc(-c2ccc(NS(=O)(=O)C3CC3)cc2F)cc1-c1ccc2c(c1)CCNC2=O | % | 24.2 |
| Nc1ncc(-c2cccc3ncsc23)cc1-c1ccc2c(c1)CCNC2=O | % | 3 |
| Nc1ncc(-c2cccc([N+](=O)[O-])c2F)cc1-c1ccc2c(c1)CCNC2=O | % | -9.6 |

Query: Query (compound): CN(C1CC1)S(=O)(=O)c1ccc(-c2cnc(N)c(-c3ccc4c(c3)CCNC4=O)c2)c(F)c1 ; field requested: inhibition at 10 µM
Result: -8.8
